# Test Target: Bcl-xL (GST-Bcl-xL) (Homo sapiens, UniProt Q07817)
# Sequence (Q07817 whole entry, species assumed): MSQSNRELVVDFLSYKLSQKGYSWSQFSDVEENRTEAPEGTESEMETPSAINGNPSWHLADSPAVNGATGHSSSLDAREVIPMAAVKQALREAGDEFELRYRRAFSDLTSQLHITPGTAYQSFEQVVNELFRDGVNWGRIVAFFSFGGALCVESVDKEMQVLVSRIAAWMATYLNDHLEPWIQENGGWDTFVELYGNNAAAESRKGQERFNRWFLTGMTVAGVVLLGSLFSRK
# Test Name: TR-FRET binding assay, competition with F-Bak for the Bcl-xL binding site
# Measurement Context: values listed in the order of Table 1, read-out: TR-FRET assay results (Ki), Bcl-xL
Binary label based on Ki with cut-off 0.2 nM: below gives 1.0, not below gives 0.0.

Compound: O=C(Nc1nc2ccccc2s1)c1cccc2c1CN(c1nc(C(=O)O)c(CCCOc3ccc(-c4cn[nH]c4)cc3)s1)CC2 [Example 73]
Label Class: 1.0

Compound: O=C(Nc1nc2ccccc2s1)c1cccc2c1CN(c1ccc(CCCOc3ccnc(Cl)c3)c(C(=O)O)n1)CC2 [Example 109]
Label Class: 0.0

Compound: O=C(Nc1nc2ccccc2s1)c1cccc2c1CN(c1nc(C(=O)O)c(CCCOc3ccc(C4=CSC5=NCCN45)cc3)s1)CC2 [Example 53]
Label Class: 1.0

Compound: N#Cc1ncccc1-c1ccc(OCCCc2sc(N3CCc4cccc(C(=O)Nc5nc6ccccc6s5)c4C3)nc2C(=O)O)cc1 [Example 58]
Label Class: 0.0

Below 0.2 nM on Ki? Entry O=C(Nc1nc2ccccc2s1)c1cccc2c1CN(c1nc(C(=O)O)c(CCOc3ccc(-n4ncc5cncnc54)cc3)s1)CC2 [Example 49]
0.0

State whether 0.2 nM exceeds Ki recorded for CN(C)CCCc1ccc(OCCCc2ccc(N3CCc4cccc(C(=O)Nc5nc6ccccc6s5)c4C3)nc2C(=O)O)c(F)c1 [Example 100] .
0.0

----------
molecules and their reported pKi
# Test Target: Bcl-xL (GST-Bcl-xL) (Homo sapiens, UniProt Q07817)
# Test Name: TR-FRET binding assay, competition with F-Bak for the Bcl-xL binding site
# Measurement Context: values listed in the order of Table 1, read-out: TR-FRET assay results (Ki), Bcl-xL
# reply with the number alone; pKi is -log10 of concentration in mol/L

The reported Bcl-xL (GST-Bcl-xL) (Homo sapiens, UniProt Q07817) pKi of `CN1CCC(Nc2ccc(OCCCc3ccc(N4CCc5cccc(C(=O)Nc6nc7ccccc7s6)c5C4)nc3C(=O)O)cc2)CC1` is 9.00

Record `O=C(Nc1nc2ccccc2s1)c1cccc2c1CN(c1nc(C(=O)O)c(CCCOc3ccc4nc(N5CCN(c6ccccn6)CC5)sc4c3)s1)CC2` has Bcl-xL (GST-Bcl-xL) (Homo sapiens, UniProt Q07817) pKi equal to 8.70

Readout pKi for `CN(C)CCOc1ccc(-c2ccc(OCCCc3ccc(N4CCc5cccc(C(=O)Nc6nc7ccccc7s6)c5C4)nc3C(=O)O)cc2)nc1` , test system Bcl-xL (GST-Bcl-xL) (Homo sapiens, UniProt Q07817), was 10.30

----------
Reported pKi is given for each of the following molecules.
# Test Target: Bcl-xL (GST-Bcl-xL) (Homo sapiens)
# Test Name: TR-FRET binding assay, competition with F-Bak for the Bcl-xL binding site
# Measurement Context: values listed in the order of Table 1, read-out: TR-FRET assay results (Ki), Bcl-xL
Just so you know, pKi here is -log10 of the concentration in molar units; reply with that number alone.

Molecule: CC1(C)[C@H]2CC[C@]1(C)C(Oc1ccccc1OCCCc1sc(N3CCc4cccc(C(=O)Nc5nc6ccccc6s5)c4C3)nc1C(=O)O)C2 (stereo partly drawn) [Example 22]
Test Target: Bcl-xL (GST-Bcl-xL) (Homo sapiens)
Reading: 7.72
//
Molecule: O=C(Nc1nc2ccccc2s1)c1cccc2c1CN(c1nc(C(=O)O)c(CCCOc3ccc(-c4ncccn4)cc3)s1)CC2 [Example 81]
Test Target: Bcl-xL (GST-Bcl-xL) (Homo sapiens)
Reading: 10.30

// next item, pKi requested
Documented pKi of CN1CCN(c2ncnc3c(-c4ccc(OCCCc5sc(N6CCc7cccc(C(=O)Nc8nc9ccccc9s8)c7C6)nc5C(=O)O)cc4)csc23)CC1 [Example 79] : 10.00

----------
# Test Target: Bcl-xL (GST-Bcl-xL) (Homo sapiens)
# Test Name: TR-FRET binding assay, competition with F-Bak for the Bcl-xL binding site
# Measurement Context: values listed in the order of Table 1, read-out: TR-FRET assay results (Ki), Bcl-xL
Quantity: Ki (nM)
Use nM as the unit, but write only the number.

Below, 4 compounds whose answers are already recorded.
Smiles Text: O=C(Nc1nc2ccccc2s1)c1cccc2c1CN(c1nc(C(=O)O)c(CCCOc3ccc(-c4csc5c(NCCCN6CCCC6)ncnc45)cc3)s1)CC2
Test Target: Bcl-xL (GST-Bcl-xL) (Homo sapiens)
Quantity: Ki
Output Unit: nM
Reading: 0.05
//
Smiles Text: CN(C)CC#Cc1ccc(OCCCc2sc(N3CCc4cccc(C(=O)Nc5nc6ccccc6s5)c4C3)nc2C(=O)O)c(Cl)c1
Test Target: Bcl-xL (GST-Bcl-xL) (Homo sapiens)
Quantity: Ki
Output Unit: nM
Reading: 0.04
//
Smiles Text: N#Cc1c(-c2ccc(OCCCc3sc(N4CCc5cccc(C(=O)Nc6nc7ccccc7s6)c5C4)nc3C(=O)O)cc2)n[nH]c1N
Test Target: Bcl-xL (GST-Bcl-xL) (Homo sapiens)
Quantity: Ki
Output Unit: nM
Reading: 0.1
//
Smiles Text: N#Cc1c(-c2cccc(OCc3sc(N4CCc5cccc(C(=O)Nc6nc7ccccc7s6)c5C4)nc3C(=O)O)c2)n[nH]c1N
Test Target: Bcl-xL (GST-Bcl-xL) (Homo sapiens)
Quantity: Ki
Output Unit: nM
Reading: 1

The reported Ki value, Bcl-xL (GST-Bcl-xL) (Homo sapiens), for `N#Cc1c(-c2ccc(OCC#Cc3sc(N4CCc5cccc(C(=O)Nc6nc7ccccc7s6)c5C4)nc3C(=O)O)cc2)n[nH]c1N` reads 0.4

Lab note: compound `CC(C)(C)OC(=O)Nc1cccc(OCCCc2sc(N3CCc4cccc(C(=O)Nc5nc6ccccc6s5)c4C3)nc2C(=O)O)c1` tested on Bcl-xL (GST-Bcl-xL) (Homo sapiens); recorded Ki was 1

Considering `O=C(O)c1cccc(N2CCc3cccc(C(=O)Nc4nc5ccccc5s4)c3C2)n1` , its Ki with Bcl-xL (GST-Bcl-xL) (Homo sapiens) was recorded as 150

Readout Ki for `O=C(Nc1nc2ccccc2s1)c1cccc2c1CN(c1nc(C(=O)O)c(CCCn3ccc4cccnc43)s1)CC2` , test system Bcl-xL (GST-Bcl-xL) (Homo sapiens), was 4

# `CN(C)CC#Cc1ccc(OCCCc2ccc(N3CCc4cccc(C(=O)Nc5nc6ccccc6s5)c4C3)nc2C(=O)O)cc1` with Bcl-xL (GST-Bcl-xL) (Homo sapiens): Ki is 0.023

Value sought: Ki, system Bcl-xL (GST-Bcl-xL) (Homo sapiens), item `O=C(Nc1nc2ccccc2s1)c1cccc2c1CN(c1nc(C(=O)O)c(CCc3ccc4cc(OCCCN5CCOCC5)ccc4c3)s1)CC2` . Result: 0.02

----------
# Test Target: Bcl-xL (GST-Bcl-xL) (Homo sapiens)
# Test Name: TR-FRET binding assay, competition with F-Bak for the Bcl-xL binding site
# Measurement Context: values listed in the order of Table 1, read-out: TR-FRET assay results (Ki), Bcl-xL
# Method: The measurement of competition of compounds of the invention with F-Bak for a Bcl-2 family protein (Bcl-xL) binding site using a Time Resolved Fluorescence Resonance Energy Transfer (TR-FRET) binding assay: […] The samples are then mixed on a shaker for 1 minute then incubated for an additional 2 hours at room temperature. […] Fluorescence was measured on the Envision (Perkin Elmer) using a 340/35 nm excitation filter and 520/525 (F-Bak) and 495/510 nm (Tb-labeled anti-his antibody) emission filters. […]
Quantity: Ki (nM)
Entry rule: numbers only, all in nM.

Here is how some compounds turned out for Ki.
Smiles Text: O=C(Nc1nc2ccccc2s1)c1cccc2c1CN(c1nc(C(=O)O)c(C#Cc3ccc4cc(OCCCN5CCOCC5)ccc4c3)s1)CC2
Test Target: Bcl-xL (GST-Bcl-xL) (Homo sapiens)
Reading: 0.07
--
Smiles Text: CN(C)CCOc1ccc(OCCCc2ccc(N3CCc4cccc(C(=O)Nc5nc6ccccc6s5)c4C3)nc2C(=O)O)cc1
Test Target: Bcl-xL (GST-Bcl-xL) (Homo sapiens)
Reading: 0.18
--
Smiles Text: N#Cc1c(-c2ccc(OCCCc3sc(N4CCc5cccc(C(=O)Nc6nc7ccccc7s6)c5C4)nc3C(=O)O)cc2)csc1N
Test Target: Bcl-xL (GST-Bcl-xL) (Homo sapiens)
Reading: 0.1
--
Smiles Text: O=C(Nc1nc2ccccc2s1)c1cccc2c1CN(c1nc(C(=O)O)c(CCOc3cccc(-n4ncc5cncnc54)c3)s1)CC2
Test Target: Bcl-xL (GST-Bcl-xL) (Homo sapiens)
Reading: 2
--
Smiles Text: O=C(Nc1nc2ccccc2s1)c1cccc2c1CN(c1nc(C(=O)O)c(-c3ccc(CO)cc3)s1)CC2
Test Target: Bcl-xL (GST-Bcl-xL) (Homo sapiens)
Reading: 4

Now for another entry.
Recorded Ki (compound `CC(C)Nc1ncnc2c(-c3ccc(OCCCc4sc(N5CCc6cccc(C(=O)Nc7nc8ccccc8s7)c6C5)nc4C(=O)O)cc3)csc12` ): 0.5
